Test system: 817829-284-R-J1-PDC multi-cell spheroid viability;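 note: spheroids exposed to agents for seven days before readout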
Experiment: Anticancer human tumor 817829-284-R-J1-PDC patient-derived colon adenocarcinoma cell line growth inhibition [PI3K]; active = viability on the fitted dose curve at most 10% of control; inactive = the rest
Details: second compound 1 µM; first compound 3.16 µM
Outcomes: active, inactive

[
  {
    "COMPOUND": "C[C@@H](NC(=O)c1ncnc(N)c1Cl)c1ncc(C(=O)Nc2cc(C(F)(F)F)c(Cl)cn2)s1 + Cc1nc(NC(=O)N2CCCC2C(N)=O)sc1-c1ccnc(C(C)(C)C(F)(F)F)c1",
    "TGT": "817829-284-R-J1-PDC multi-cell spheroid viability",
    "GROUP LABEL": "inactive"
  },
  {
    "COMPOUND": "C=CC(=O)N1CCN(c2nc(=O)n(-c3c(C)ccnc3C(C)C)c3nc(-c4c(O)cccc4F)c(F)cc23)C(C)C1 (stereo not given) + Cc1nc(NC(=O)N2CCCC2C(N)=O)sc1-c1ccnc(C(C)(C)C(F)(F)F)c1",
    "TGT": "817829-284-R-J1-PDC multi-cell spheroid viability",
    "GROUP LABEL": "inactive"
  },
  {
    "COMPOUND": "CC1(C)CCC(CN2CCN(c3ccc(C(=O)NS(=O)(=O)c4ccc(NCC5CCOCC5)c([N+](=O)[O-])c4)c(Oc4cnc5[nH]ccc5c4)c3)CC2)=C(c2ccc(Cl)cc2)C1 + Cc1nc(NC(=O)N2CCCC2C(N)=O)sc1-c1ccnc(C(C)(C)C(F)(F)F)c1",
    "TGT": "817829-284-R-J1-PDC multi-cell spheroid viability",
    "GROUP LABEL": "inactive"
  },
  {
    "COMPOUND": "C[C@@H](NC(=O)c1ncnc(N)c1Cl)c1ncc(C(=O)Nc2cc(C(F)(F)F)c(Cl)cn2)s1 + COc1c(OCCCN2CCOCC2)ccc2c3n(c(=NC(=O)c4cnc(N)nc4)nc12)CCN3",
    "TGT": "817829-284-R-J1-PDC multi-cell spheroid viability",
    "GROUP LABEL": "active"
  },
  {
    "COMPOUND": "CC(Cn1ccc(-c2ccc(C#N)c(Cl)c2)n1)NC(=O)c1cc(C(C)O)[nH]n1 (stereo not given) + Cc1nc(NC(=O)N2CCCC2C(N)=O)sc1-c1ccnc(C(C)(C)C(F)(F)F)c1",
    "TGT": "817829-284-R-J1-PDC multi-cell spheroid viability",
    "GROUP LABEL": "inactive"
  }
]

Values compiled from PubChem BioAssay AID1963969.
